Ref: ChEMBL document CHEMBL1255438

# System: Staphylococcus
# assay method text: Antimicrobial activity against linezolid-resistant coagulase-negative Staphylococcus by CLSI method
# Format: functional

compound	MIC50
CN[C@H](CC(C)C)C(=O)N[C@H]1C(=O)N[C@@H](CC(N)=O)C(=O)N[C@H]2C(=O)N[C@H]3C(=O)N[C@H](C(=O)N[C@H](C(=O)O)c4cc(O)cc(O)c4-c4cc3ccc4O)[C@H](O)c3ccc(c(Cl)c3)Oc3cc2cc(c3O[C@@H]2O[C@H](CO)[C@@H](O)[C@H](O)[C@H]2O[C@H]2C[C@](C)(N)[C@H](O)[C@H](C)O2)Oc2ccc(cc2Cl)[C@H]1O [VANCOMYCIN]	2 µg/mL
